experiment: Absorption maximum after colour development in a photographic silver halide layer according to Use Example I; type: physicochemical; conditions: pyrazolone coupling agents
Endpoint Label: Abs.max., first of two maxima (subsidiary maximum)
Numeric answer plus unit only.

Take a look at these entries with their results.
CCCCC(CC)COP(=O)(CCCOc1cccc(C(=O)Nc2cccc(NC3=NN(c4ccccc4)C(=O)C3)c2)c1)OCC(CC)CCCC (stereo not drawn) [(421)]: 430 nm
CCOP(=O)(CCCOc1cccc(NC2=NN(c3c(Cl)cc(Cl)cc3Cl)C(=O)C2)c1)OCC [(403)]: 424 nm
CCOP(=O)(CCCOc1cc(OCCCP(=O)(OCC)OCC)cc(C(=O)Nc2cccc(C(=O)NC3=NN(c4c(Cl)cc(Cl)cc4Cl)C(=O)C3)c2)c1)OCC [(216)]: 432 nm
CCCCOP(=O)(CCCOc1cccc(C(=O)Nc2cccc(NC3=NN(c4c(Cl)cc(Cl)cc4Cl)C(=O)C3)c2)c1)OCCCC [(419)]: 427 nm
CCCCOP(=O)(CCCOc1cc(OCCCP(=O)(OCCCC)OCCCC)cc(C(=O)NC2=NN(c3c(C)c(Cl)c(OC)c(Cl)c3Cl)C(=O)C2)c1)OCCCC [(254)]: 438 nm

Item: CC(C)OP(=O)(CCCOc1cccc(C(=O)Nc2ccc(C(=O)NC3=NN(c4c(Cl)cc(Cl)cc4Cl)C(=O)C3)cc2)c1)OC(C)C [(210)] | Abs.max., first of two maxima (subsidiary maximum): 434 nm

Item: CCCCOP(=O)(CCCOc1cccc(C(=O)Nc2cccc(NC3=NN(c4ccc(S(=O)(=O)N(CC)CC)cc4)C(=O)C3)c2)c1)OCCCC [(427)] | Abs.max., first of two maxima (subsidiary maximum): 431 nm

Item: CCCCOP(=O)(CCCOc1cccc(C(=O)Nc2ccc(C(=O)NC3=NN(c4c(Cl)cc(Cl)cc4Cl)C(=O)C3)cc2)c1)OCCCC [(211)] | Abs.max., first of two maxima (subsidiary maximum): 434 nm

Item: CCOP(=O)(CCCOc1cccc(NC2=NN(c3ccccc3)C(=O)C2)c1)OCC [(401)] | Abs.max., first of two maxima (subsidiary maximum): 429 nm

Item: CCCCOP(=O)(CCCOc1cccc(C(=O)Nc2ccc(NC3=NN(c4ccccc4)C(=O)C3)cc2)c1)OCCCC [(417)] | Abs.max., first of two maxima (subsidiary maximum): 428 nm

Item: CCOP(=O)(CCCOc1cccc(C(=O)NC2=NN(c3c(Cl)cc(Cl)cc3Cl)C(=O)C2)c1)OCC [(202)] | Abs.max., first of two maxima (subsidiary maximum): 434 nm

Item: CCOP(=O)(CCCCCOc1cc(OCCCCCP(=O)(OCC)OCC)cc(C(=O)Nc2ccc(C(=O)NC3=NN(c4c(Cl)cc(Cl)cc4Cl)C(=O)C3)cc2)c1)OCC [(212)] | Abs.max., first of two maxima (subsidiary maximum): 434 nm

Item: CCCCOP(=O)(CCCOc1cccc(C(=O)Nc2cccc(C(=O)NC3=NN(c4c(Cl)cc(Cl)cc4Cl)C(=O)C3)c2)c1)OCCCC [(220)] | Abs.max., first of two maxima (subsidiary maximum): 434 nm

Item: CCCCC(CC)COP(=O)(CCCOc1cccc(C(=O)Nc2cccc(C(=O)NC3=NN(c4c(Cl)cc(Cl)cc4Cl)C(=O)C3)c2)c1)OCC(CC)CCCC (stereo not drawn) [(219)] | Abs.max., first of two maxima (subsidiary maximum): 436 nm

Item: CC(C)OP(=O)(CCCCCOc1cc(OCCCCCP(=O)(OC(C)C)OC(C)C)cc(C(=O)Nc2cccc(C(=O)NC3=NN(c4ccccc4)C(=O)C3)c2)c1)OC(C)C [(239)] | Abs.max., first of two maxima (subsidiary maximum): 440 nm

Item: CCOP(=O)(CCCOc1ccc(NC2=NN(c3cccc(Cl)c3)C(=O)C2)cc1)OCC [(406)] | Abs.max., first of two maxima (subsidiary maximum): 425 nm

Item: CCOP(=O)(CCCOc1ccc(NC2=NN(c3ccccc3)C(=O)C2)cc1)OCC [(405)] | Abs.max., first of two maxima (subsidiary maximum): 428 nm

Item: CCCCOP(=O)(CCCOc1cc(OCCCP(=O)(OCCCC)OCCCC)cc(C(=O)Nc2cccc(NC(=O)NC3=NN(c4c(Cl)cc(Cl)cc4Cl)C(=O)C3)c2)c1)OCCCC [(273)] | Abs.max., first of two maxima (subsidiary maximum): 430 nm

Item: CCOP(=O)(CCCOc1cccc(C(=O)Nc2c(C)cc(C)c(N3N=C(Nc4ccc(Cl)cc4)CC3=O)c2C)c1)OCC [(425)] | Abs.max., first of two maxima (subsidiary maximum): 430 nm

Item: CCCCC(CC)COP(=O)(CCCOc1cccc(C(=O)Nc2cccc(C(=O)NC3=NN(c4nc5ccccc5s4)C(=O)C3)c2)c1)OCC(CC)CCCC (stereo not drawn) [(259)] | Abs.max., first of two maxima (subsidiary maximum): 548 nm

Item: CCCCC(CC)COP(=O)(CCCOc1cccc(C(=O)Nc2cccc(C(=O)NC3=NN(c4ccccc4)C(=O)C3)c2)c1)OCC(CC)CCCC (stereo not drawn) [(225)] | Abs.max., first of two maxima (subsidiary maximum): 440 nm

Item: CCCCOP(=O)(CCCOc1cc(OCCCP(=O)(OCCCC)OCCCC)cc(C(=O)Nc2ccc(C(=O)NC3=NN(c4c(Cl)cc(Cl)cc4Cl)C(=O)C3)cc2)c1)OCCCC [(218)] | Abs.max., first of two maxima (subsidiary maximum): 436 nm

Item: CCOP(=O)(CCCOc1cccc(C(=O)Nc2cccc(C(=O)NC3=NN(c4c(Cl)cc(Cl)cc4Cl)C(=O)C3)c2)c1)OCC [(205)] | Abs.max., first of two maxima (subsidiary maximum): 434 nm

Item: CCOP(=O)(CCCCCOc1cccc(C(=O)Nc2cccc(C(=O)NC3=NN(c4ccccc4)C(=O)C3)c2)c1)OCC [(227)] | Abs.max., first of two maxima (subsidiary maximum): 438 nm
